Ref: patent US20230295298A1

- tgt: T1, human A33 antigen, full length, on cells (human, UniProt Q99795 22-319)
- T1 construct: CHO cells transfected with full length A33 cDNA (A33-CHO), or endogenous antigen of LS174T (colon) and AsPC-1 (pancreatic) tumour cells; The cell line is named under assay; also called A33-CHO; A33 antigen on LS174T cells
- T1 sequence: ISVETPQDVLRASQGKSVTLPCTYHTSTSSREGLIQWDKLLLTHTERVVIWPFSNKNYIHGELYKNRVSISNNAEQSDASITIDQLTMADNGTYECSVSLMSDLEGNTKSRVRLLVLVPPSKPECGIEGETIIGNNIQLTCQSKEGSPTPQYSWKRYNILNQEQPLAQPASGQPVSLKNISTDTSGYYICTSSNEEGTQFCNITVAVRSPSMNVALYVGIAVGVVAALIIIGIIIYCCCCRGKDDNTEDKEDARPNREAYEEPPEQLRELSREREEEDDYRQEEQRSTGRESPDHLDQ
- assay procedure: IHC on LS174T FFPE sections, 20ug/mL, repeat result
Provide the reported H-Score of IHC of each item.
Respond with the bare value in H-Score.

So what's the measured H-Score of IHC for this one? humanized 31.1 antibody #10 (sdr-HC + abb-LC) (antibody, human IgG1, kappa, V domains shown, Full heavy and light chains; transient Expi293 expression, tested as culture supernatant; also called Sample ID 10; sdr31.1-HC + abb31.1-LC) VH: QIQLVQSGAEVKKPGASVKVSCKASGYTFTNYGMNWVRQAPGKGLEWMGWINPYTGEPTYAQKFQGRVTFTLDTSISTAYMELSRLRSDDTAVYFCARAYYGKYFDYWGQGTTVTVSS VL: SIQMTQSPSSLSASVGDRVTITCRASQSVSNDVAWYQQKPGQSPKLLIYYASNRYSGVPDRFSGSGYGTDFTLTISSLQPEDFAVYFCQQDYSSPLTFGAGTKLEIKR
115

Also, humanized 31.1 antibody #14 (ven-HC + abb-LC) (antibody, human IgG1, kappa, V domains shown, Full heavy and light chains; transient Expi293 expression, tested as culture supernatant; also called Sample ID 14; ven31.1-HC + abb31.1-LC) VH: QIQLVQSGPEVKKPGASVKISCKASGYTFTNYGMNWVKQAPGQGLKWMGWINTYTGEPTYADDFKGRFAFTLDTSISTAYLEISRLRSDDTAVYFCARAYYGKYFDYWGQGTTLTVSS VL: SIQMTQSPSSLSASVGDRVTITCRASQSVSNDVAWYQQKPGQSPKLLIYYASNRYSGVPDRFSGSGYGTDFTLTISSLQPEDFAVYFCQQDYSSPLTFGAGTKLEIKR please.
30

Also, humanized 31.1 antibody #5 (abb31.1-HC + cdr31.1-LC) (antibody, human IgG1, kappa, V domains shown, Full heavy and light chains; supernatant in the first screen, Protein A/G purified in the second round; also called Sample ID 5; abb-HC + cdr-LC) VH: QIQLVQSGAEVKKPGASVKVSCKASGYTFTNYGMNWVRQAPGKGLEWMGWINTYTGEPTYAQKFQGRVTFTLDTSISTAYMELSRLRSDDTAVYFCARAYYGKYFDYWGQGTTVTVSS VL: SIVMTQSPSSLSASVGDRVTITCKASQSVSNDVAWYQQKPGQSPKLLIYYASNRYTGVPDRFSGSGYGTDFTLTISSLQPEDFAVYFCQQDYSSPLTFGAGTKLEIKR please.
100

Also, humanized 31.1 antibody #16 (ven31.1-HC + ven31.1-LC) (antibody, human IgG1, kappa, V domains shown, Full heavy and light chains; supernatant in the first screen, Protein A/G purified in the third round; also called Sample ID 16; ven-HC + ven-LC) VH: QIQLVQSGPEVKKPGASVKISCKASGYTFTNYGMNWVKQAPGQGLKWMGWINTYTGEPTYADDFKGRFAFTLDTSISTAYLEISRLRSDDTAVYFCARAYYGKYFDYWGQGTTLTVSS VL: SIVMTQSPSSLSVSVGDRVTITCKASQSVSNDVAWYQQKPGQSPKLLIYYASNRYTGVPDRFSGSGYGTDFTFTISSVQPEDLAVYFCQQDYSSPLTFGAGTKLELKR please.
0

Also, humanized 31.1 antibody #6 (abb31.1-HC + abb31.1-LC) (antibody, human IgG1, kappa, V domains shown, Full heavy and light chains; supernatant in the first screen, Protein A/G purified in the second round; also called Sample ID 6; abb-HC + abb-LC) VH: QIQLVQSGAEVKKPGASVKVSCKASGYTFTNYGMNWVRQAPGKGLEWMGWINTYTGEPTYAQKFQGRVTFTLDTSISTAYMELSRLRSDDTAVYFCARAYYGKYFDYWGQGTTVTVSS VL: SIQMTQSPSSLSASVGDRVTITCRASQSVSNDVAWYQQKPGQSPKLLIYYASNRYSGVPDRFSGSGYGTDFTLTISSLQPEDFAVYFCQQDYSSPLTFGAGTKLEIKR please.
240
